For each of the binders below, state its Kd.
# EXPERIMENTAL_TARGET: T1, PUF4 RNA-binding domain (Saccharomyces cerevisiae, UniProt P25339 537-888)
# T1 sequence: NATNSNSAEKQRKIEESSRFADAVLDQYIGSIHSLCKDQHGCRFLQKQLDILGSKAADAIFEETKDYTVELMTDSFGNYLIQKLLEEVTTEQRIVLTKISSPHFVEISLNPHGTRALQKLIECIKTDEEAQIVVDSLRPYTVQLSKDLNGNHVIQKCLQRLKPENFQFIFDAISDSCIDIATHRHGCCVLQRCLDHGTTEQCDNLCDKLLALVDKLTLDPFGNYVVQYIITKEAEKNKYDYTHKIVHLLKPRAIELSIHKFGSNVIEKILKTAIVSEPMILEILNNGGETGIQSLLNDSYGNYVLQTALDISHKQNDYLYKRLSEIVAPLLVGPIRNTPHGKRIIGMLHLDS
# TEST_PROTOCOL: Mg; RNA-MaP; 20 mM Na-HEPES pH 7.4, 30 mM KOAc, 0.75 mM MgCl2, 0.1% Tween-20, 5% glycerol, 0.1 mg/mL BSA, 2 mM DTT; 25 C; 0.0125-409.6 nM protein
# RUN_CONDITIONS: tags: N-His6-TEV cleaved; C-SNAP kept, Cy3B-labelled; label: tethered on chip by stalled RNA polymerase
Quick note: give the figure in nM, leave out the unit.

Ask: Give me measured Kd, please, for this binder: Ic_S4_P4E.1_K4.1_C4.1_H4.1_A4.1_[T5C]_[T7C]_F4.1_[T8G]_[A9C]_T4.1 (ssRNA) RNA: UUUGACAACUGAUCGUUCUUUCUUGUACACGCUUCUUUCUCGAUCAGUUGUCUUU
Reply: 90.1

Ask: Look up Kd of UCUCUUUCUAUAUAUAAUUCUCUU (ssRNA) [Id_ii_S1_P3E.3_K3.2_C3.2_[C-2T]_[T-1C]_H3.2_A3.1_F3.1_T3.2_[T9A]_[A10T]] and report it.
Reply: 1010

Ask: In one line, give reported Kd of the entry Ic_S2_P5E.1_K5.1_C5.1_H5.1_A5.1_F5.1_[T8C]_[T9A]_[A10T]_T5.1 (ssRNA) RNA: UUUGAUUAAUAUGAUAUCGUUCUUUCUUGUAUUACAUUUCUUUCUCGAUAUCAUAUUAAUCUUU .
Reply: 444

Ask: Read the entry UCUCUUUCUUGUAUAUAUGUCUCUU (ssRNA) [Id_iii_S1_P3E.5_K3.1_C3.3_H3.1_A3.1_F3.1_T3.2_[A10G]] and write its reported Kd.
Reply: 7.51

Ask: Give the value of Kd reported for the following: Ie_S2_P4E.1_K4.1_C4.1_H4.1_A4.1_F4.1_[+8CCTC]_T4.1 (ssRNA) RNA: UUUGAUUAAUAUGAUAUCGUUCUUUCUUGUAUAUUCCUCAUUCUUUCUCGAUAUCAUAUUAAUCUUU
Reply: 4.56

Ask: Hello, please tell me recorded Kd for this one: Id_ii_S4_P3E.2_K3.1_C3.2_[C-2A]_[T-1G]_H3.1_A3.1_F3.1_T3.2_[T9A] (ssRNA) RNA: UUUGACAACUGAUCGUUCUUUCUAGUGUAUAUAAAUUCUUUCUCGAUCAGUUGUCUUU
Reply: 10.8

Ask: Please look at this binder and report its Kd: Id_ii_S2_P3E.2_K3.1_C3.2_[T-1C]_H3.1_A3.1_F3.1_T3.2_[T9A]_[A10G] (ssRNA) RNA: UUUGAUUAAUAUGAUAUCGUUCUUUCUCCUGUAUAUAAGUUCUUUCUCGAUAUCAUAUUAAUCUUU
Reply: 4.04

Ask: Quote Kd reported for UCUCUUUGUAUGCAUCUCUU (ssRNA) [Ic_S1_P3E.1_K3.1_C3.1_H3.1_A3.1_[A6G]_F3.1_[T7C]_T3.1] please.
Reply: 1280

Ask: Name the recorded Kd of the binder listed here: Id_ii_S2_P5E.2_K5.1_C5.2_[C-2T]_[T-1A]_H5.1_A5.1_F5.1_T5.2_[A12C] (ssRNA) RNA: UUUGAUUAAUAUGAUAUCGUUCUUUCUUAUGUAUUAUUAUCUUCUUUCUCGAUAUCAUAUUAAUCUUU
Reply: 4.16

Ask: Supply Kd value. Item: Id_ii_S4_P3E.3_K3.2_C3.2_[C-2A]_[T-1C]_H3.2_A3.1_F3.1_T3.2_[T9C]_[A10G] (ssRNA) RNA: UUUGACAACUGAUCGUUCUUUCUACUAUAUAUACGUUCUUUCUCGAUCAGUUGUCUUU
Reply: 2050

Ask: Answer with reported Kd of Id_ii_S2_P4E.3_K4.2_C4.2_[T-1C]_H4.2_A4.1_F4.1_T4.2_[G10T] (ssRNA) RNA: UUUGAUUAAUAUGAUAUCGUUCUUUCUCCUAUAUAUUAUUUUCUUUCUCGAUAUCAUAUUAAUCUUU
Reply: 3.61

Ask: Note down Kd recorded for Ie_S4_P5E.1_K5.1_C5.1_H5.1_A5.1_[+7CCC]_F5.1_T5.1 (ssRNA) RNA: UUUGACAACUGAUCGUUCUUUCUUGUAUUACCCUUAUUCUUUCUCGAUCAGUUGUCUUU
Reply: 85

Ask: Provide one value: measured Kd of Id_ii_S2_P3E.3_K3.2_C3.2_[C-2T]_H3.2_A3.1_F3.1_T3.2_[T9G]_[A10T] (ssRNA) RNA: UUUGAUUAAUAUGAUAUCGUUCUUUCUUUUAUAUAUAGUUUCUUUCUCGAUAUCAUAUUAAUCUUU
Reply: 253

Ask: State its Kd for this binder: Ic_S2_P5E.1_K5.1_C5.1_H5.1_A5.1_[T5C]_[A7G]_F5.1_[T8G]_[T9C]_[A10T]_T5.1 (ssRNA) RNA: UUUGAUUAAUAUGAUAUCGUUCUUUCUUGUACUGGCUUUCUUUCUCGAUAUCAUAUUAAUCUUU
Reply: 1660

Ask: // fetch Kd given entry Ia_S2_P5E.1_K5.1_C5.1_H5.1_[A4G]_A5.1_F5.1_T5.1 (ssRNA) RNA: UUUGAUUAAUAUGAUAUCGUUCUUUCUUGUGUUAUUAUUCUUUCUCGAUAUCAUAUUAAUCUUU
Reply: 12.9

Ask: Determine from records and report Kd for UCUCUUUGUACUUGGUCUCUU (ssRNA) [Ic_S1_P4E.1_K4.1_C4.1_H4.1_A4.1_[T5C]_[A6T]_F4.1_[T8G]_[A9G]_T4.1]
Reply: 623

Ask: Write down Kd measured for item UCUCUUUGUAGCAACUCUCUU (ssRNA) [Ic_S1_P4E.1_K4.1_C4.1_H4.1_A4.1_[T5G]_[A6C]_[T7A]_F4.1_[T8A]_[A9C]_T4.1]
Reply: 1210

Ask: Provide measured Kd value, entry: UCUCUUUGUAUAUUAUCUUCUCUU (ssRNA) [Ie_S1_P4E.1_K4.1_C4.1_H4.1_A4.1_F4.1_[+9TCT]_T4.1]
Reply: 0.632

Ask: Fill in reported Kd for this entry: Ie_S2_P5E.1_K5.1_C5.1_H5.1_A5.1_[+7CCTC]_F5.1_T5.1 (ssRNA) RNA: UUUGAUUAAUAUGAUAUCGUUCUUUCUUGUAUUACCUCUUAUUCUUUCUCGAUAUCAUAUUAAUCUUU
Reply: 49

Ask: Write down Kd measured for item Ib_S2_P4E.1_K4.1_C4.1_H4.1_[G2A]_A4.1_F4.1_[A9C]_T4.1 (ssRNA) RNA: UUUGAUUAAUAUGAUAUCGUUCUUUCUUAUAUAUUCUUCUUUCUCGAUAUCAUAUUAAUCUUU
Reply: 200

Ask: Name the recorded Kd of the binder listed here: UCUCUUCUUGUAUAUUAUUUCUCUU (ssRNA) [Id_ii_S1_P4E.2_K4.1_C4.2_H4.1_A4.1_F4.1_T4.2_[G10T]]
Reply: 0.541

Ask: Determine from records and report Kd for Ic_S4_P3E.1_K3.1_C3.1_H3.1_A3.1_[T5A]_[A6T]_F3.1_[T7A]_[A8G]_T3.1 (ssRNA) RNA: UUUGACAACUGAUCGUUCUUUCUUGUAAUAGUUCUUUCUCGAUCAGUUGUCUUU
Reply: 1240

Ask: Return reported Kd. Input binder: UCUCUUUGUAUACUCUCUCUU (ssRNA) [Ic_S1_P4E.1_K4.1_C4.1_H4.1_A4.1_[T7C]_F4.1_[A9C]_T4.1]
Reply: 9.32
